# system: FZD1 (Homo sapiens)
# Construct: purchased Promega (in-house HiBiT-GPCR construct library, NanoBRET)
# Sequence (Q9UP38 70-647): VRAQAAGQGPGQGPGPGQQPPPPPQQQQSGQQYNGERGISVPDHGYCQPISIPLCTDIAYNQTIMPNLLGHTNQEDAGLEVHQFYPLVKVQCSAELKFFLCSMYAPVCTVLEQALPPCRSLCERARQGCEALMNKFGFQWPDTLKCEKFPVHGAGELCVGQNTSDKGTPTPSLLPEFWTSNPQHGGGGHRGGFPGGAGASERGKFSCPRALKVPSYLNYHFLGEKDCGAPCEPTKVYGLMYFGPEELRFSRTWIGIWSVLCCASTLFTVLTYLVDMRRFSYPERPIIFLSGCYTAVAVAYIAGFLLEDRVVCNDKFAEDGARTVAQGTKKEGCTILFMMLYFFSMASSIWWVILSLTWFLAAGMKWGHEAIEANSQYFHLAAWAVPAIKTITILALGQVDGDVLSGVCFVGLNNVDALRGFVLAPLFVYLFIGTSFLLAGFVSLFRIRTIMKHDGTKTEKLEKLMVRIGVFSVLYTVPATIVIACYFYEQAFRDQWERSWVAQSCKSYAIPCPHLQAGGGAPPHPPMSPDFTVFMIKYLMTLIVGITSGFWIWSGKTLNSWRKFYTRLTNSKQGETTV
# experiment: NanoBRET screen HiBiT-FZD1 in HEK293
# Type: binding
# particulars: FZD1; tracer 1μM
# NanoBRET Fold Response per record follows
readout: NanoBRET Fold Response

compound	reportedResult
COc1ccccc1N1CCN(CCCCN2C(=O)c3ccc(CNC(=O)CCOCCNC(=O)c4ccc(CNC(=O)CCc5ccc6n5[B-](F)(F)[N+]5=C(c7ccc[nH]7)C=CC5=C6)cc4)cc3C2=O)CC1 [NAN-190-3-NB590]	1.01
O=C(CCOCCOCCOCCOCCNC(=O)CCc1ccc2n1[B-](F)(F)[N+]1=C(c3ccc[nH]3)C=CC1=C2)NCCCN1CCN(C2=Nc3ccccc3Oc3ccc(Cl)cc32)CC1 [Loxapine-a-2-NB590]	1.03
CC(C)N(CC[C@H](c1ccccc1)c1cc(CCNC(=O)CCOCCOCCOCCOCCNC(=O)CCc2ccc3n2[B-](F)(F)[N+]2=C(c4ccc[nH]4)C=CC2=C3)ccc1O)C(C)C [Tolterodine-2-NB590]	0.97
Cc1nc2n(c(=O)c1CCN1CCC(c3noc4cc(F)ccc34)CC1)CCCC2OC(=O)NCCOCCOCCOCCOCCNC(=O)CCc1ccc2n1[B-](F)(F)[N+]1=C(c3ccc[nH]3)C=CC1=C2 (centres unmarked) [Risperidone-2-NB590]	1.00
COc1ccccc1N1CCN(CCCCN2C(=O)c3ccc(CNC(=O)CCOCCOCCOCCOCCNC(=O)CCc4ccc5n4[B-](F)(F)[N+]4=C(c6ccc[nH]6)C=CC4=C5)cc3C2=O)CC1 [NAN-190-2-NB590]	1.06

###

# system: MC3R (Homo sapiens, UniProt P41968)
# Construct: purchased Promega (in-house HiBiT-GPCR construct library, NanoBRET)
# Sequence (P41968 whole entry): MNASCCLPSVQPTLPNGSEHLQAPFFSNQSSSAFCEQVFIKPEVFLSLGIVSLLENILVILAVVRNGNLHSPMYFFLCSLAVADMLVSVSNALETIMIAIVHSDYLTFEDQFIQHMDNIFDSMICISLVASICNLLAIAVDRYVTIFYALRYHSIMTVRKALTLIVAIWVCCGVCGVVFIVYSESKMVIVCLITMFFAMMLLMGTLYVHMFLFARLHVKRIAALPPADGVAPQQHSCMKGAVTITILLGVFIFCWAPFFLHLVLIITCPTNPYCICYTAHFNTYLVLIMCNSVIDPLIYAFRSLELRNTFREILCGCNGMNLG
# experiment: NanoBRET screen HiBiT-MC3R in HEK293
# Assay type: binding
# particulars: MC3R; tracer 0.1μM
Please mark yes if the recorded NanoBRET Fold Response is equal to or greater than 1, and no if it falls below.

compound	system	assignedCategory
CCCn1c(=O)c2[nH]c(-c3ccc(OCC(=O)NCCNC(=O)CCOCCNC(=O)c4ccc(CNC(=O)CCc5ccc6n5[B-](F)(F)[N+]5=C(c7ccc[nH]7)C=CC5=C6)cc4)cc3)nc2n(CCC)c1=O	MC3R (Homo sapiens, UniProt P41968)	yes
O=C(CCc1ccc2n1[B-](F)(F)[N+]1=C(c3ccc[nH]3)C=CC1=C2)NCc1ccc(C(=O)NCCOCCC(=O)N[C@@H]2CC[C@@]3(O)[C@H]4Cc5ccc(O)c6c5[C@@]3(CCN4CC3CC3)[C@H]2O6)cc1 [Naltrexone-3-NB590]	MC3R (Homo sapiens, UniProt P41968)	no
COc1ccccc1N1CCN(CCCCN2C(=O)c3ccc(CNC(=O)CCOCCNC(=O)c4ccc(CNC(=O)CCc5ccc6n5[B-](F)(F)[N+]5=C(c7ccc[nH]7)C=CC5=C6)cc4)cc3C2=O)CC1	MC3R (Homo sapiens, UniProt P41968)	yes
COc1ccccc1N1CCN(CCCCN2C(=O)c3ccc(CNC(=O)CCOCCOCCOCCOCCNC(=O)CCc4ccc5n4[B-](F)(F)[N+]4=C(c6ccc[nH]6)C=CC4=C5)cc3C2=O)CC1	MC3R (Homo sapiens, UniProt P41968)	yes

###

# NanoBRET Fold Response per record follows
# system: MCHR1 (Homo sapiens, UniProt Q99705)
# Construct: purchased Promega (in-house HiBiT-GPCR construct library, NanoBRET)
# Sequence (Q99705 whole entry): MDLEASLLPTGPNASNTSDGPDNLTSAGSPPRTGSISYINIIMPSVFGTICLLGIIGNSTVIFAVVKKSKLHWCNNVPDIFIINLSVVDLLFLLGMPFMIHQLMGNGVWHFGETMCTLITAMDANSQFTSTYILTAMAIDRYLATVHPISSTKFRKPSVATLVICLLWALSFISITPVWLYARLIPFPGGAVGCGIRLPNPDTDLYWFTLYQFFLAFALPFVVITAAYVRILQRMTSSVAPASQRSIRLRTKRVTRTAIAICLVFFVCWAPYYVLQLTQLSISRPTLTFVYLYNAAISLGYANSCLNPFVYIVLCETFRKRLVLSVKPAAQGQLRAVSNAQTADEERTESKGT
# experiment: NanoBRET screen HiBiT-MCHR1 in HEK293
# Format: binding
# particulars: MCHR1; tracer 0.1μM

molecule	system	NanoBRET Fold Response
N#CN=C(NCCCOc1cccc(CN2CCCCC2)c1)NCCNC(=O)CCOCCOCCOCCOCCNC(=O)CCc1ccc2n1[B-](F)(F)[N+]1=C(c3ccc[nH]3)C=CC1=C2	MCHR1 (Homo sapiens, UniProt Q99705)	0.99
O=C(CCc1ccc2n1[B-](F)(F)[N+]1=C(c3ccc[nH]3)C=CC1=C2)NCCOCCOCCNC(=O)OCCOCCN1CCN(C2=Nc3ccccc3Sc3ccccc32)CC1	MCHR1 (Homo sapiens, UniProt Q99705)	1.04
CC(C)N(CC[C@H](c1ccccc1)c1cc(CCNC(=O)c2ccc(CNC(=O)CCc3ccc4n3[B-](F)(F)[N+]3=C(c5ccc[nH]5)C=CC3=C4)cc2)ccc1O)C(C)C	MCHR1 (Homo sapiens, UniProt Q99705)	0.83
Cc1nc2n(c(=O)c1CCN1CCC(c3noc4cc(F)ccc34)CC1)CCCC2OC(=O)NCCOCCOCCOCCOCCNC(=O)CCc1ccc2n1[B-](F)(F)[N+]1=C(c3ccc[nH]3)C=CC1=C2 (centres unmarked)	MCHR1 (Homo sapiens, UniProt Q99705)	0.94
Cc1cc2c(s1)Nc1ccccc1N=C2N1CCN(CCCNC(=O)CCOCCOCCOCCOCCNC(=O)CCc2ccc3n2[B-](F)(F)[N+]2=C(c4ccc[nH]4)C=CC2=C3)CC1	MCHR1 (Homo sapiens, UniProt Q99705)	1.04

###

# system: HTR2C (Homo sapiens, UniProt P28335)
# Construct: purchased Promega (in-house HiBiT-GPCR construct library, NanoBRET)
# Sequence (P28335 33-458): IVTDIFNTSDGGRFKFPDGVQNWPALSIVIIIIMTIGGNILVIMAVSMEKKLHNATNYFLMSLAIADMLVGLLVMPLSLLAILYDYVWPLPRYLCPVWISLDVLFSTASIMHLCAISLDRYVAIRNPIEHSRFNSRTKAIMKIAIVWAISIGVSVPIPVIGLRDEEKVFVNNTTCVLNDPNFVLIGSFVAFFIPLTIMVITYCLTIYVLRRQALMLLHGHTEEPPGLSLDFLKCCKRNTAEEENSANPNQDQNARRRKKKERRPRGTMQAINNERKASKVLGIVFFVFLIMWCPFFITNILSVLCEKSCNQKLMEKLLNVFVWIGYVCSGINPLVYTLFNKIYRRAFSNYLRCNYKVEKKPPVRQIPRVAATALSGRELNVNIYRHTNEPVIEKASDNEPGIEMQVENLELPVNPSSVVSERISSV
# experiment: NanoBRET screen HiBiT-HTR2C in HEK293
# Assay type: binding
# particulars: HTR2C; tracer 0.1μM
# NanoBRET Fold Response per record follows
readout: NanoBRET Fold Response

molecule	readout	reportedResult
O=C(CCOCCOCCOCCOCCNC(=O)CCc1ccc2n1[B-](F)(F)[N+]1=C(c3ccc[nH]3)C=CC1=C2)NCCCN1CCN(C2=Nc3ccccc3Oc3ccc(Cl)cc32)CC1 [Loxapine-a-2-NB590]	NanoBRET Fold Response	1.60
COc1ccccc1N1CCN(CCCCN2C(=O)c3ccc(CNC(=O)CCOCCOCCOCCOCCNC(=O)CCc4ccc5n4[B-](F)(F)[N+]4=C(c6ccc[nH]6)C=CC4=C5)cc3C2=O)CC1 [NAN-190-2-NB590]	NanoBRET Fold Response	1.00
CC(C)N(CC[C@H](c1ccccc1)c1cc(CCNC(=O)c2ccc(CNC(=O)CCc3ccc4n3[B-](F)(F)[N+]3=C(c5ccc[nH]5)C=CC3=C4)cc2)ccc1O)C(C)C [Tolterodine-BZ-NB590]	NanoBRET Fold Response	0.86

###

# system: BDKRB2 (Homo sapiens, UniProt P30411)
# Construct: purchased Promega (in-house HiBiT-GPCR construct library, NanoBRET)
# Sequence (P30411 whole entry): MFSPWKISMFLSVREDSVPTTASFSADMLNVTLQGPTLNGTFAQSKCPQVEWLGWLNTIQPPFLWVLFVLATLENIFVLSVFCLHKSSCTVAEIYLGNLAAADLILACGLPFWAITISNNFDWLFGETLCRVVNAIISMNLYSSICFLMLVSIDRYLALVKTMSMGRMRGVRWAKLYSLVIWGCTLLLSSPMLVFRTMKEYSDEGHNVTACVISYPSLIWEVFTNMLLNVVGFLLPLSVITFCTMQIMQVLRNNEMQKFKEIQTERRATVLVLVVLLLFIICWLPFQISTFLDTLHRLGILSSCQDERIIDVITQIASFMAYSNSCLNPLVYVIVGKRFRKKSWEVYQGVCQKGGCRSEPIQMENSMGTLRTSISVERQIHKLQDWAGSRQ
# experiment: NanoBRET screen HiBiT-BDKRB2 in HEK293
# Type: binding
# particulars: BDKRB2; tracer 1μM

compound	system	NanoBRET Fold Response
Cc1nc2n(c(=O)c1CCN1CCC(c3noc4cc(F)ccc34)CC1)CCCC2OC(=O)NCCOCCOCCOCCOCCNC(=O)CCc1ccc2n1[B-](F)(F)[N+]1=C(c3ccc[nH]3)C=CC1=C2 (centres unmarked) [Risperidone-2-NB590]	BDKRB2 (Homo sapiens, UniProt P30411)	0.96
Cc1cc2c(s1)Nc1ccccc1N=C2N1CCN(CCCNC(=O)CCOCCOCCOCCOCCNC(=O)CCc2ccc3n2[B-](F)(F)[N+]2=C(c4ccc[nH]4)C=CC2=C3)CC1 [Olanzapine-a-2-NB590]	BDKRB2 (Homo sapiens, UniProt P30411)	1.06
CC(C)N(CC[C@H](c1ccccc1)c1cc(CCNC(=O)CCOCCOCCOCCOCCNC(=O)CCc2ccc3n2[B-](F)(F)[N+]2=C(c4ccc[nH]4)C=CC2=C3)ccc1O)C(C)C [Tolterodine-2-NB590]	BDKRB2 (Homo sapiens, UniProt P30411)	0.95
CCCn1c(=O)c2[nH]c(-c3ccc(OCC(=O)NCCNC(=O)CCOCCNC(=O)c4ccc(CNC(=O)CCc5ccc6n5[B-](F)(F)[N+]5=C(c7ccc[nH]7)C=CC5=C6)cc4)cc3)nc2n(CCC)c1=O [XAC-3-NB590]	BDKRB2 (Homo sapiens, UniProt P30411)	1.14
COc1ccccc1N1CCN(CCCCN2C(=O)c3ccc(CNC(=O)CCOCCOCCOCCOCCNC(=O)CCc4ccc5n4[B-](F)(F)[N+]4=C(c6ccc[nH]6)C=CC4=C5)cc3C2=O)CC1 [NAN-190-2-NB590]	BDKRB2 (Homo sapiens, UniProt P30411)	0.98

###

# NanoBRET Fold Response per record follows
# system: FPR3 (Homo sapiens, UniProt P25089)
# Construct: purchased Promega (in-house HiBiT-GPCR construct library, NanoBRET)
# Sequence (P25089 whole entry): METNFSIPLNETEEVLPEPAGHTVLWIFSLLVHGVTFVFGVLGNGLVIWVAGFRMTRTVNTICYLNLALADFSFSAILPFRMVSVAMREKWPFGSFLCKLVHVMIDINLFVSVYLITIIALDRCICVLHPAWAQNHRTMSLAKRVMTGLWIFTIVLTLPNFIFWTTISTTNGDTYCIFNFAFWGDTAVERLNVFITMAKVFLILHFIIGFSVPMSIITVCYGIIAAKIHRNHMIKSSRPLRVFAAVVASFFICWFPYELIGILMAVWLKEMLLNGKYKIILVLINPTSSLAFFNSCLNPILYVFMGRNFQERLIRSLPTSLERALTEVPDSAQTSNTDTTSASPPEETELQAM
# experiment: NanoBRET screen HiBiT-FPR3 in HEK293
# Type: binding
# particulars: FPR3; tracer 0.1μM

compound	NanoBRET Fold Response
CCCn1c(=O)c2[nH]c(-c3ccc(OCC(=O)NCCNC(=O)CCOCCNC(=O)c4ccc(CNC(=O)CCc5ccc6n5[B-](F)(F)[N+]5=C(c7ccc[nH]7)C=CC5=C6)cc4)cc3)nc2n(CCC)c1=O	0.78
COc1ccccc1N1CCN(CCCCN2C(=O)c3ccc(CNC(=O)CCOCCNC(=O)c4ccc(CNC(=O)CCc5ccc6n5[B-](F)(F)[N+]5=C(c7ccc[nH]7)C=CC5=C6)cc4)cc3C2=O)CC1	1.28
O=C(CCc1ccc2n1[B-](F)(F)[N+]1=C(c3ccc[nH]3)C=CC1=C2)NCc1ccc(C(=O)NCCOCCC(=O)N[C@@H]2CC[C@@]3(O)[C@H]4Cc5ccc(O)c6c5[C@@]3(CCN4CC3CC3)[C@H]2O6)cc1 [Naltrexone-3-NB590]	0.82
CC(C)N(CC[C@H](c1ccccc1)c1cc(CCNC(=O)CCOCCOCCOCCOCCNC(=O)CCc2ccc3n2[B-](F)(F)[N+]2=C(c4ccc[nH]4)C=CC2=C3)ccc1O)C(C)C	1.60
COc1ccccc1N1CCN(CCCCN2C(=O)c3ccc(CNC(=O)CCOCCOCCOCCOCCNC(=O)CCc4ccc5n4[B-](F)(F)[N+]4=C(c6ccc[nH]6)C=CC4=C5)cc3C2=O)CC1	1.00
O=C(CCOCCOCCOCCOCCNC(=O)CCc1ccc2n1[B-](F)(F)[N+]1=C(c3ccc[nH]3)C=CC1=C2)NCCCN1CCN(C2=Nc3ccccc3Oc3ccc(Cl)cc32)CC1	1.02
N#CN=C(NCCCOc1cccc(CN2CCCCC2)c1)NCCNC(=O)CCOCCOCCOCCOCCNC(=O)CCc1ccc2n1[B-](F)(F)[N+]1=C(c3ccc[nH]3)C=CC1=C2	1.21
Cc1nc2n(c(=O)c1CCN1CCC(c3noc4cc(F)ccc34)CC1)CCCC2OC(=O)NCCOCCOCCOCCOCCNC(=O)CCc1ccc2n1[B-](F)(F)[N+]1=C(c3ccc[nH]3)C=CC1=C2 (centres unmarked)	0.98
